# Test system: SF-268 CNS
# measurement notes: NCI tumour cell line growth inhibition, 48 h; in the data active = GI50 below about 0.43 µM; inactive = the rest
Labels: 1 (active), 0 (inactive)

smiles entry	discrete label
COc1ccc(/C(=N/O)c2cc(F)c(F)c(OC)c2F)cc1O	0
COC(=O)c1cc2c3cc(Cl)ccc3[nH]c2c2ncccc12	0
O=C(Nc1cccc2[nH]c(C(F)(F)F)nc12)c1ccc(Br)cc1F	0
C(#Cc1ccccc1C#Cc1cnccn1)c1cnccn1	0
COc1cc2c(cc1OCCCN1CCN(CCCOc3cc4c(cc3OC)C(=O)N3C[C@H](F)C[C@H]3C=N4)CC1)N=C[C@@H]1C[C@@H](F)CN1C2=O	1
CC(C)(C)c1ccc(OCCCCCCCN2CCNCC2)cc1	0
O=C1/C(=C/c2ccc([N+](=O)[O-])s2)Oc2ccc(Br)cc21	1
COc1cccc(/C=C2\COc3ccc(O)c(O)c3C2=O)c1OC	0
CCn1cnc(C[C@H](NC(=O)[C@@H](NC(=O)Nc2cc(C(F)(F)F)cc(C(F)(F)F)c2)C(C)(C)C)C(=O)OC)c1	0
CCOC(=O)c1c(C)n(Cc2ccc(Cl)cc2Cl)c2c1cc(O)c1[nH]c(Cc3ccccc3)nc12	0

----------
# Test system: RPMI-8226 leukemia
# measurement notes: NCI tumour cell line growth inhibition, 48 h
Where a SMILES comes first, the peptide text is derived from it. [ ]: non-standard residue; d: D form. The star is where a group is joined. Phe(4-NO2) = N[CH](Cc1ccc([N+](=O)[O-])cc1)C(=O)O; Cbz = O=C(OCc1ccccc1)*
Recorded TGI, one value per entry.
outcome measure: TGI

compound	tested on	value observed
COc1cc(/C=C/C(=O)c2cccc(-n3cc(-c4ccccc4)[nH]c3=O)c2)ccc1O	RPMI-8226 leukemia	4.21 µM
COc1cc(Br)c(/C=N/N=C(\N)NO)cc1OC	RPMI-8226 leukemia	> 100 µM
CC1CCC2C(C(=O)O[C@H]3C4C=CO[C@@H](OC5OC(CO)C(O)C(O)C5O)C4[C@@]4(CO)O[C@@H]34)=CO[C@@H](OC3OC(CO)C(O)C(O)C3O)C12 (stereo partly specified)	RPMI-8226 leukemia	> 10 µM
O=c1oc2cc(O)ccc2cc1-c1nc2ccccc2o1	RPMI-8226 leukemia	75.8 µM
Nc1ccccc1SC(CC(=O)c1ccccc1)c1c(Cl)cccc1Cl (stereo unspecified)	RPMI-8226 leukemia	5.35 µM
O=C1CSc2ccnc(=O)n21	RPMI-8226 leukemia	> 100 µM
O=C(O)C(Cc1ccc(O)cc1)N=Cc1nc(-c2ccccc2)oc1O (stereo unspecified)	RPMI-8226 leukemia	> 100 µM
O=C1C2C3C=CC(C2C(=O)N1CN1CCOCC1)C1C2C(=O)N(CN4CCOCC4)C(=O)C2C31 (stereo unspecified)	RPMI-8226 leukemia	> 71.9 µM
CC(=O)OC1CCC2(C)C(=CCC3C2CCC2(C)C3CC3OC4(CCC(C)CN4)C(C)C32)C1 (stereo unspecified)	RPMI-8226 leukemia	> 100 µM
Nc1nc2cc(COc3ccc(C(=O)O)cc3)ccc2nc1-c1ccccc1	RPMI-8226 leukemia	> 10 µM
O=C(OCc1ccccc1)N1N=NC2C3CC(OCc4ccccc4)(OCc4ccccc4)C(O3)C21 (stereo unspecified)	RPMI-8226 leukemia	> 100 µM
COc1ccc(/C=C2\CC3C4CC=C5C[C@@H](N6CCCC6)CC[C@]5(C)C4CC[C@]3(C)[C@H]2O)cc1OC (stereo partly specified)	RPMI-8226 leukemia	22.1 µM
COC(=O)/C=C1/OC(c2ccccc2)=C(Br)C1=O	RPMI-8226 leukemia	> 100 µM
O=C(NC1C(=O)NC(CCc2ccccc2)NC1=O)OCc1ccccc1 (stereo unspecified)	RPMI-8226 leukemia	> 100 µM
CCOC(=O)CCC(NC(=O)OCc1ccccc1)C(=O)NC(CCC(=O)OCC)C(=O)NC(CCC(=O)OCC)C(=O)NC(CCC(=O)OCC)C(=O)NC(CCC(=O)OCC)C(=O)NC(Cc1ccc([N+](=O)[O-])cc1)C(=O)NC(CCC(=O)OCC)C(=O)NC(CCC(=O)OCC)C(=O)NC(CCC(=O)OCC)C(=O)NC(CCC(=O)OCC)C(=O)NC(CCC(=O)OCC)C(=O)OCC (stereo unspecified) (Cbz-E(OEt)E(OEt)E(OEt)E(OEt)E(OEt)[Phe(4-NO2)]E(OEt)E(OEt)E(OEt)E(OEt)E(OEt)-OEt; configuration not given here)	RPMI-8226 leukemia	> 50 µM
CN1CC[C@@]2(c3cccc(O)c3)CC(=O)/C(=C/c3ccc(Cl)c(Cl)c3)[C@H]1C2	RPMI-8226 leukemia	4.37 µM

----------
# Test system: RXF 393 renal
# measurement notes: NCI tumour cell line growth inhibition, 48 h
The reader will find reported TGI values listed item by item below.

smiles entry	limit sign	TGI / µM
Cc1c(C(=O)Nc2ccc(Oc3ccnc4cc(OCC(C)(C)O)ccc34)c(F)c2)c(=O)n(-c2ccccc2)n1C	>	100
O=C1CSc2ccnc(=O)n21	>	100
NNC(=O)c1cc(Cl)ccc1NC(=O)C12CC3CC(CC(C3)C1)C2	>	100
O=C(Nc1cccc2[nH]c(C(F)(F)F)nc12)c1ccc(Br)cc1F	=	9.12
COc1ccc(-c2c(C#N)c(N)nc(Sc3ccccc3N)c2C#N)cc1	=	30.1

----------
Reported GI50 values for a set of molecules
# Test system: TK-10 renal
# measurement notes: NCI tumour cell line growth inhibition, 48 h
outcome measure: GI50

molecule	tested on	value observed
NC(=O)c1c(NC(=O)c2ccc(C(F)(F)F)cc2Cl)sc2c1CCC(=O)C2	TK-10 renal	423 nM
CCOC(=O)CCC(NC(=O)c1ccc(Oc2nc3cc(N)cc(N)c3nc2-c2ccccc2)cc1)C(=O)OCC (stereo not given)	TK-10 renal	> 100000 nM
O=C1/C(=C/c2ccc([N+](=O)[O-])s2)Oc2ccc(Br)cc21	TK-10 renal	389 nM
COc1cccc(C2=C(c3cn(C)c4c(C)cccc34)C(=O)NC2=O)c1	TK-10 renal	> 25000 nM
COc1cccc(/C=C2\COc3ccc(O)c(O)c3C2=O)c1OC	TK-10 renal	2360 nM

----------
List of TGI values.
# System: OVCAR-3 ovarian
# measurement notes: NCI tumour cell line growth inhibition, 48 h

compound	tested on	result units	limit sign	TGI
Cc1ccc2c(n1)C(=O)c1cc(C)c(C)cc1C2=O	OVCAR-3 ovarian	µM	=	67.3
CSCCCNC(=O)c1csc(-c2csc(CCNC(=O)CNC(=O)OC(C)(C)C)n2)n1	OVCAR-3 ovarian	µM	>	100
O=c1oc2cc(O)ccc2cc1-c1nc2ccccc2o1	OVCAR-3 ovarian	µM	=	61.8
CN(C)Cc1cc(C(=O)/C=C/c2ccc(Cl)cc2Cl)cc(CN(C)C)c1O	OVCAR-3 ovarian	µM	=	11.6
CC[n+]1c(/C=C/c2cc(C(=O)OC)n3c2sc2ccccc23)sc2ccccc21	OVCAR-3 ovarian	µM	=	42.4
CC1(C)C2CCC1(C)C(NC(=O)COCCOCC(N)=O)C2 (centres undefined)	OVCAR-3 ovarian	µM	>	100
CC(C)(C)C1CC[C@H](O)[C@H]([C@@H](O)CC2CC(=O)N(c3ccccc3)C(=O)C2)C1 (some centres undefined)	OVCAR-3 ovarian	µM	>	100
CC1(c2cccc(C(F)(F)F)c2)CC(c2cccc(C(F)(F)F)c2)=C(C#N)C(=C(C#N)C#N)N1 (centres undefined)	OVCAR-3 ovarian	µM	=	24.6
O=C1CC2=CCCC2O1 (centres undefined)	OVCAR-3 ovarian	µM	>	100

----------
# Tested on: SR leukemia
# measurement notes: NCI tumour cell line growth inhibition, 48 h
Where a SMILES comes first, the peptide text is derived from it. [ ]: non-standard residue; d: D form. The star is where a group is joined. Phe(4-NO2) = N[CH](Cc1ccc([N+](=O)[O-])cc1)C(=O)O; Cbz = O=C(OCc1ccccc1)*

molecule	tested on	TGI
NC(=S)N/N=C1\CCc2ccccc2C1	SR leukemia	> 100 µM
CCOC(=O)CCC(NC(=O)OCc1ccccc1)C(=O)NC(CCC(=O)OCC)C(=O)NC(CCC(=O)OCC)C(=O)NC(CCC(=O)OCC)C(=O)NC(CCC(=O)OCC)C(=O)NC(Cc1ccc([N+](=O)[O-])cc1)C(=O)NC(CCC(=O)OCC)C(=O)NC(CCC(=O)OCC)C(=O)NC(CCC(=O)OCC)C(=O)NC(CCC(=O)OCC)C(=O)NC(CCC(=O)OCC)C(=O)OCC (stereo unspecified) (Cbz-E(OEt)E(OEt)E(OEt)E(OEt)E(OEt)[Phe(4-NO2)]E(OEt)E(OEt)E(OEt)E(OEt)E(OEt)-OEt; configuration not given here)	SR leukemia	> 50 µM
C=Cc1c(-c2ccccc2)cnc2[nH]c3ccccc3c12	SR leukemia	> 50 µM
c1ccc2c(c1)n1c(N3CCCC3)[n+]3ccccc3c1c1c3cccc[n+]3c(N3CCCC3)n21	SR leukemia	> 100 µM
CC1=C(C(=O)Nc2cc(F)c(F)cc2F)C(c2ccc(N(C)C)cc2)C(C(=O)Nc2cc(F)c(F)cc2F)=C(C)N1	SR leukemia	> 100 µM
CN(C)Cc1c[nH]c2nc[nH]c(=O)c12	SR leukemia	53.7 µM
COc1cc2c(cc1OCCCN1CCN(CCCOc3cc4c(cc3OC)C(=O)N3C[C@H](F)C[C@H]3C=N4)CC1)N=C[C@@H]1C[C@@H](F)CN1C2=O	SR leukemia	0.521 µM
Cc1nc2sc(C(=O)Nc3cccc4c3OCCO4)c(N)c2cc1C(C)O (stereo unspecified)	SR leukemia	> 100 µM
CC(=O)NC1=C(NCCO)C(=O)c2ccccc2C1=O	SR leukemia	> 50 µM
C1=C(c2ccccc2)NC2=N[C@H]3CCCC[C@@H]3N2C1c1ccccc1 (stereo partly specified)	SR leukemia	39.3 µM
CC(=O)OC1C(C)OC(Oc2c(-c3ccc(O)cc3)oc3cc(O)cc(O)c3c2=O)C(O)C1OC(C)=O (stereo unspecified)	SR leukemia	65 µM
COc1ccc(C(=O)c2[nH]c(Nc3cc(C)ccn3)c(C(=S)Nc3ccccc3)c2N)cc1	SR leukemia	> 100 µM
Cc1c(C(=O)Nc2ccc(Oc3ccnc4cc(OCC(C)(C)O)ccc34)c(F)c2)c(=O)n(-c2ccccc2)n1C	SR leukemia	> 100 µM
Fc1nc(-c2c3ccccc3c3sc4ccccc4n23)nc(N2CCOCCOCCOCCOCC2)n1	SR leukemia	68.6 µM
O=C(O)C(C1NCCS1)N1C(=O)c2ccccc2C1=O (stereo unspecified)	SR leukemia	> 100 µM
CSc1cc(Cl)c(C(=O)Nc2ccccc2)cc1S(=O)(=O)n1cc[nH]c1=O	SR leukemia	> 100 µM
C(#Cc1ccccc1C#Cc1cnccn1)c1cnccn1	SR leukemia	> 100 µM
CCc1n(Cc2ccc3ccccc3c2)cc[n+]1Cc1ccc2ccccc2c1	SR leukemia	4.28 µM
N#Cc1ccc(N=NN2CCCC2)cc1	SR leukemia	> 100 µM
CCCCCCCCC#CCCCCCCC(F)C(=O)O (stereo unspecified)	SR leukemia	> 100 µM
COc1cc(CNc2ccc(C)cc2)cc(OC)c1OC	SR leukemia	> 100 µM
NC(N)=NS(=O)(=O)c1ccc(NCc2cccc3c(=O)c4ccc(Cl)cc4oc23)cc1	SR leukemia	> 25 µM
CCOP(=O)(OCC)/C(C#N)=C/c1cccn1C	SR leukemia	> 100 µM
CCc1n[nH]c(=O)n1N	SR leukemia	> 100 µM
CCCCCCCCCCCCCCCCNc1nc(=O)n(C2CC(O)C(COP(=O)(O)OC3CC(n4cc(F)c(=O)[nH]c4=O)OC3CO)O2)cc1F (stereo unspecified)	SR leukemia	13.1 µM
O=C(/C=C/c1cccc(Cl)c1)c1ccccc1	SR leukemia	31.5 µM
COc1cccc(C2=C(c3cn(C)c4c(C)cccc34)C(=O)NC2=O)c1	SR leukemia	> 25 µM
CCOC(=O)C1Cc2ccc(C)cc2C1=O (stereo unspecified)	SR leukemia	> 100 µM
O=C1C=C(c2ccccc2)NC1(c1ccccc1)c1cc(-c2ccccc2)[nH]c1-c1ccccc1 (stereo unspecified)	SR leukemia	> 100 µM
CC(C)OC(=O)NNc1c(Cl)cc(Cl)cc1Cl	SR leukemia	> 100 µM
NC(=O)c1c(NC(=O)c2ccc(C(F)(F)F)cc2Cl)sc2c1CCC(=O)C2	SR leukemia	> 100 µM
CCCOC(=O)C1C(c2ccc(OC)cc2)NC(c2ccc(OC)cc2)C(C(=O)OCCC)S1(=O)=O (stereo unspecified)	SR leukemia	> 100 µM
CC1(C)CCOC(Sc2ccccc2)C1 (stereo unspecified)	SR leukemia	> 100 µM
O=S(=O)(c1ccccc1)C1(C2(S(=O)(=O)c3ccccc3)CCN=N2)CCN=N1 (stereo unspecified)	SR leukemia	> 100 µM
COc1cccc(C2c3cc4c(cc3OC(N3CCCC3)C2c2ccccc2)OCO4)c1O (stereo unspecified)	SR leukemia	32.7 µM
CC(C)C[C@H](NC(=O)[C@@H](N)Cc1cccc2ccccc12)B(O)O	SR leukemia	0.0653 µM
